tested_target: Prohibitin-2 (Homo sapiens)
experiment_notes: Induction of PHB2-mediated melanogenesis in human HBL cells assessed as pigmentation at 1 uM after 10 days relative to control
Type: cell-based
experimental_readout: fold change (FC)

CNc1nc(Oc2c(F)c(F)c(F)c(F)c2F)nc(N(C)[C@H](C)c2ccccc2)n1 = 0.88
Fc1cccc(CNc2nc(NCc3cccnc3)nc(Oc3c(F)c(F)c(F)c(F)c3F)n2)c1 = 0.92
CNc1nc(Oc2c(F)c(F)c(F)c(F)c2F)nc(N2Cc3ccccc3C2)n1 = 0.93
O=C1CCCN1CCCNc1nc(NCc2cccc(F)c2)nc(Oc2c(F)c(F)c(F)c(F)c2F)n1 = 0.99
OCC1CCN(c2nc(NCc3cccc(F)c3)nc(Oc3c(F)c(F)c(F)c(F)c3F)n2)CC1 = 0.89
Fc1cccc(CNc2nc(NCCCCc3ccccc3)nc(Oc3c(F)c(F)c(F)c(F)c3F)n2)c1 = 0.9
Fc1cccc(CNc2nc(Oc3c(F)c(F)c(F)c(F)c3F)nc(N3CCC(N4CCCCC4)CC3)n2)c1 = 1.15
Fc1cccc(CNc2nc(NCCc3cc4ccccc4[nH]3)nc(Oc3c(F)c(F)c(F)c(F)c3F)n2)c1 = 1.09
CNc1nc(N[C@H](C)c2ccccc2)nc(Oc2c(F)c(F)c(F)c(F)c2F)n1 = 1.16
